Experiment: recombinant barcode read abundance after kanamycin selection (control-corrected) (log10(CPM+1)); higher = more efficient recombination; sequences stand for … in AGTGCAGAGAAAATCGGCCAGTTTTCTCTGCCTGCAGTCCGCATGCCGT…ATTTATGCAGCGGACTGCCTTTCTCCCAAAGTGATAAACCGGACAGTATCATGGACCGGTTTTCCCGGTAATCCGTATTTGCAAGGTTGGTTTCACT; site = the 11-nt target
metric: recombinant barcode read abundance (log10)
Just the number, please, no unit after it.

Here is how some sequences turned out for recombinant barcode read abundance (log10).
GGCTCCCCATGGGTTCTAACCTGTTGCGGTG [GGCTCCCCTCC_LTGcore_CA_RTGcore_CA] (site GGCTCCCCTCC) (LTG core: CA, RTG core: CA) = 0.1
CGAGCCCGCTGGGTTCTAACCTGTTGCTGGC [CGAGCCCCTCA_LTGcore_GC_RTGcore_GC] (site CGAGCCCCTCA) (LTG core: GC, RTG core: GC) = 0.0793
GGGAGCCAGTGGGTTCTAACCTGTTGCTGCT [GGGAGCCCTCA_LTGcore_AG_RTGcore_AG] (site GGGAGCCCTCA) (LTG core: AG, RTG core: AG) = 0.523
GGTGCCCACTGGGTTCTAACCTGTTGCCGAG [GGTGCCCCTCG_LTGcore_AC_RTGcore_CT] (site GGTGCCCCTCG) (LTG core: AC, RTG core: CT) = 0.416

Pending sequence:
Using the record for ATGTCCCTATGGGTTCTAACCTGTTGCTCTA [ATGTCCCCTGA_LTGcore_TA_RTGcore_TA] (site ATGTCCCCTGA) (LTG core: TA, RTG core: TA) , report its recombinant barcode read abundance (log10).
0.208

----------
Assay: recombinant UMI read abundance after kanamycin selection (control-corrected) (log10(CPM+1)); higher = more efficient recombination; extreme values may be limits of the assay; sequences stand for … in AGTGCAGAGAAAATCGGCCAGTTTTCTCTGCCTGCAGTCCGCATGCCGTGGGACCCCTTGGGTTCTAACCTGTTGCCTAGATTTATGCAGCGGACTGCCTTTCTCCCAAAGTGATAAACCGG…AGGTTGGTTTCACT; site = the 11-nt donor
metric: recombinant UMI read abundance (log10)
Give a plain numeric answer without units written out.

I'd like to know its recombinant UMI read abundance (log10). The sequence in question is CGCCTGTCATGGACCGGTTTTCCCGGTAATCCGTATTTGTT (site CGCCTGTCTAA)
0.902

Give the measured recombinant UMI read abundance (log10) of CCCTTCTCATGGACCGGTTTTCCCGGTAATCCGTATTTGTG (site CCCTTCTCTCC) .
0.0231

Would you kindly share the measured recombinant UMI read abundance (log10) for CGGAAGACATGGACCGGTTTTCCCGGTAATCCGTATTTGAA (site AGGAAGACTTG) ?
0

Given the sequence ACACATTCATGGACCGGTTTTCCCGGTAATCCGTATTTGAC (site ACACATACTGT) , what is its reported recombinant UMI read abundance (log10)?
0.745

Item under review: TACTGCGCATGGACCGGTTTTCCCGGTAATCCGTATTTGAC (site TACTGCGCTGT) . Reported recombinant UMI read abundance (log10)?
1.9

// lookup recombinant UMI read abundance (log10) for TTAAGTCCATGGACCGGTTTTCCCGGTAATCCGTATTTGTA (site TCAAGTCCTTA)
0.361

Can you look up the measured recombinant UMI read abundance (log10) of CTGCAAACATGGACCGGTTTTCCCGGTAATCCGTATTTGCA (site CTGCAAACTTG) for me?
0.915

Query: recombinant UMI read abundance (log10); subject: GTTCGAGCATGGACCGGTTTTCCCGGTAATCCGTATTTGCA (site GCTCGAGCTTG)
1.25

Need recombinant UMI read abundance (log10), item CCCTTCTCATGGACCGGTTTTCCCGGTAATCCGTATTTGGG (site CCCTTCTCTGC)
0

Which recombinant UMI read abundance (log10) value is on record for GACAAACCATGGACCGGTTTTCCCGGTAATCCGTATTTGGC (site GACAAACCTAC) ?
0

// returns reported recombinant UMI read abundance (log10) for input GGCCACCCATGGACCGGTTTTCCCGGTAATCCGTATTTGAT (site GGCCACCCTAG)
0

// query recombinant UMI read abundance (log10) value for entry AGGTTCCCATGGACCGGTTTTCCCGGTAATCCGTATTTGTG (site AGGTTCGCTCA)
0.0252

What value of measured recombinant UMI read abundance (log10) is listed for TGTCCTACATGGACCGGTTTTCCCGGTAATCCGTATTTGGA (site TGTCCTACTTC) ?
0.0197

----------
Test: recombinant barcode read abundance after kanamycin selection (control-corrected) (log10(CPM+1)); higher = more efficient recombination; sequences stand for … in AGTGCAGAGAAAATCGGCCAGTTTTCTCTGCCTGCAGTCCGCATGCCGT…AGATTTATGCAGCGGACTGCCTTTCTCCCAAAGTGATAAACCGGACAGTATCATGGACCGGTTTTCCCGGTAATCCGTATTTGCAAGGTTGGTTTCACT; site = the 11-nt target
metric: recombinant barcode read abundance (log10)

Recorded results for 4 sequences are shown here.
GGTGGGTCTTGGGTTCTAACCTGTTGCTT (site GGTGGGTCTAC) = 0.663
CTTACTGCTTGGGTTCTAACCTGTTGCCT (site CTTACAGCTAG) = 0.775
AGGGGCACTTGGGTTCTAACCTGTTGCCG (site AGGGGCACTCG) = 1.83
CATGTACCTTGGGTTCTAACCTGTTGCCT (site TATGTACCTAG) = 0.0813

Fill in: recombinant barcode read abundance (log10) of CTAAATCCTTGGGTTCTAACCTGTTGCCT (site ATAAATCCTAG) is ___
0.111

----------
Experiment: recombinant barcode read abundance after kanamycin selection (control-corrected) (log10(CPM+1)); higher = more efficient recombination; sequences stand for … in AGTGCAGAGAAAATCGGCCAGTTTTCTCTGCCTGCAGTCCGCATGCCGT…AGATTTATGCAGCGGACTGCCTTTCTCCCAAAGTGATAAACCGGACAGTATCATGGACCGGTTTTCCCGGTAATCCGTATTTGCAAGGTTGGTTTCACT; site = the 11-nt target
Cut-off 0.08 on recombinant barcode read abundance (log10), inclusive. At or above means YES; below means NO.

Below, 8 sequences whose answers are already recorded.
TGACGTCCTTGGGTTCTAACCTGTTGCCT (site TGACGTCCTAG) = YES
ATCTATTCTTGGGTTCTAACCTGTTGCCT (site ATCTATTCTAG) = YES
GTTGCCACTTGGGTTCTAACCTGTTGCCT (site GTTGCCACTAG) = YES
CATGATACTTGGGTTCTAACCTGTTGCCT (site CATGATACTAG) = YES
GGTGCTCCTTGGGTTCTAACCTGTTGCTT (site GGTGCTCCTAA) = NO
TAGATAACTTGGGTTCTAACCTGTTGCTG (site ACCCATTCTAC) = NO
TCTAAGGCTTGGGTTCTAACCTGTTGCCT (site TCGAAGGCTAG) = NO
CGGGCCTCTTGGGTTCTAACCTGTTGCTC (site CGGGCCTCTAA) = YES

Kindly determine if recombinant barcode read abundance (log10) recorded for GTCATGGCTTGGGTTCTAACCTGTTGCCT (site GTCATGGCTAG) is above or exactly 0.08.
YES

Does recombinant barcode read abundance (log10) meet or surpass 0.08 for GAGCGAGCTTGGGTTCTAACCTGTTGCAG (site GAGCGAGCTCC) ?
YES

Please tell me: is the sequence TCCGGTACTTGGGTTCTAACCTGTTGCTT (site TCCGGTACTAA) at or over 0.08 in terms of recombinant barcode read abundance (log10)?
YES

Kindly determine if recombinant barcode read abundance (log10) recorded for TAGCGGCCTTGGGTTCTAACCTGTTGCCT (site TAGCGGCCTAG) is above or exactly 0.08.
YES

Identify whether the reported recombinant barcode read abundance (log10) of the following sequence is 0.08 or greater: GATCGATCTTGGGTTCTAACCTGTTGCCT (site GATCGATCTAA)
NO

Could you please find out whether GGCTAGTCTTGGGTTCTAACCTGTTGCTT (site GGATTGTCTAA) has recombinant barcode read abundance (log10) that meets 0.08 or exceeds it?
YES

I'd appreciate it if you could say whether GGGTCGGCTTGGGTTCTAACCTGTTGCGT (site GGGTCGGCTGC) has recombinant barcode read abundance (log10) at least equal to 0.08.
YES

Please tell me: is the sequence ACTTAGACTTGGGTTCTAACCTGTTGCCC (site ACTTAGACTGG) at or over 0.08 in terms of recombinant barcode read abundance (log10)?
YES

Decide: is the reported value of recombinant barcode read abundance (log10) for CAGGCGACTTGGGTTCTAACCTGTTGCCT (site CAGGCGGCTAG) equal to or greater than 0.08?
NO

Please check the record GGACGCTCTTGGGTTCTAACCTGTTGCCT (site GGACGCTCTAG) and state if its recombinant barcode read abundance (log10) is at or above 0.08.
YES

Evaluate ACCAGTACTTGGGTTCTAACCTGTTGCCT (site ACCCGTACTAG) : recombinant barcode read abundance (log10) at minimum 0.08?
NO
